- measurementTarget: tissue-nonspecific alkaline phosphatase (TNAP) (Homo sapiens)
- Construct: dialyzed serum-free conditioned medium
- Sequence (P05186 18-502 limits assumed): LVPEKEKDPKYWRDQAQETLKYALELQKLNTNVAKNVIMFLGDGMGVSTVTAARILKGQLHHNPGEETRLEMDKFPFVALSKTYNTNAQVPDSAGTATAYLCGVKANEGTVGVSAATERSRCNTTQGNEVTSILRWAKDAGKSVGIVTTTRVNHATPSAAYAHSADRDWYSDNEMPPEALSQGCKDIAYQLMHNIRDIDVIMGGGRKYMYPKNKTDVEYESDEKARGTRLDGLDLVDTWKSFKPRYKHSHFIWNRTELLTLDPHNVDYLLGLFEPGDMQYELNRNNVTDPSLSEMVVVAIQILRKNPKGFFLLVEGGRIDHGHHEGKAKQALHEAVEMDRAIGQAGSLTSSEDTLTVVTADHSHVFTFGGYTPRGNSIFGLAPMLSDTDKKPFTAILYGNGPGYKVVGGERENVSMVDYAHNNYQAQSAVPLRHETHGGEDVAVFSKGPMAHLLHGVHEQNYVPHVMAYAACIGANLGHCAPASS
- protocolDescription: TNAP inhibition screening assay (colorimetric pNPP / luminescence CDP-star), IC50
- reportedConditions: Tables A-H; tissue-nonspecific alkaline phosphatase inhibitors
pIC50: −log10 of the molar value.
Parameter pIC50: see the listing below.
readoutName: pIC50

smilesString: O=C(CSc1nc2ccc[nH]c-2n1)c1ccc(F)cc1
observed: 5.20

smilesString: COc1ccccc1-c1nnc(SCc2ccccn2)[nH]1
observed: 5.42

smilesString: CCOC(=O)c1sc(NC(=O)CSc2nnc(-c3ccccc3OC)[nH]2)c(C#N)c1C
observed: 5.27

smilesString: C=CCSc1nc(-c2ccc(OC)cc2)n[nH]1
observed: 5.36

smilesString: COc1ccc2c(c1)CCc1c-2n[nH]c1C(=O)O
observed: 6.49

smilesString: Oc1nc2cc(Cl)ccc2n1-c1ccccc1
observed: 5.27

smilesString: COC(=O)c1cc(-c2ccc(Br)cc2)n[nH]1
observed: 6.51

smilesString: O=P(O)(O)c1ccccc1OCCCCCOc1ccccc1P(=O)(O)O
observed: 5.69

smilesString: O=P(O)(O)c1ccccc1OCCOCCOc1ccccc1P(=O)(O)O
observed: 5.78

smilesString: CCOc1ccc(C)cc1S(=O)(=O)Nc1cccnc1
observed: 5.71
